pIC50: −log10 of the molar value.
// values below are pIC50; system is DGKζ (Homo sapiens (Human), UniProt Q13574)
Sequence (Q13574 other isoform, or with tags, fused parts or gaps): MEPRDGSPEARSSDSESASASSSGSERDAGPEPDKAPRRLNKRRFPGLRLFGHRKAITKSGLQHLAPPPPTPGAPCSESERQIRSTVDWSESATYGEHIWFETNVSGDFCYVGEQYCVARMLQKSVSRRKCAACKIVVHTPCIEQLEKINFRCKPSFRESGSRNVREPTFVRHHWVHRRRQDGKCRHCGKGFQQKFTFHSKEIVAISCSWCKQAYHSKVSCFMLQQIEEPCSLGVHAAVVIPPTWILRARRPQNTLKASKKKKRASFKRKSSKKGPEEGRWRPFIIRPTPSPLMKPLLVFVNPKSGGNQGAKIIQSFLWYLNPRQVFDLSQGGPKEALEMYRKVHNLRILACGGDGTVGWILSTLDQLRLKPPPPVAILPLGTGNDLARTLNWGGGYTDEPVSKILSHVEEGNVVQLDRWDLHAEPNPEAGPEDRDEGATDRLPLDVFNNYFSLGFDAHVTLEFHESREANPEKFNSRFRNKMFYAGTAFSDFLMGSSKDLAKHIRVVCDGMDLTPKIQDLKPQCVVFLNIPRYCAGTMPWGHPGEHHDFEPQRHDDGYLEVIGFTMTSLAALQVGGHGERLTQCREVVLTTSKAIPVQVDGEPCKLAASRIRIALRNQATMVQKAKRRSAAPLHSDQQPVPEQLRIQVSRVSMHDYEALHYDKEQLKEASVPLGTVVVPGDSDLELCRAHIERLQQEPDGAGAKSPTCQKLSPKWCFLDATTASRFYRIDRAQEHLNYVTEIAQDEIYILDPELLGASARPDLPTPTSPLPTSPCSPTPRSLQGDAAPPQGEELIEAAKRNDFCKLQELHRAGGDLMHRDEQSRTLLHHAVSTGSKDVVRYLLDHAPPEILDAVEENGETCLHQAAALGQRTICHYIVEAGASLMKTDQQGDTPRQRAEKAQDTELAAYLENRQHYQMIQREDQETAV
property: pIC50

# example entries with known answers
molecule="CC[C@H]1CN(C(C)c2ccn3ccnc3c2)[C@H](CC)CN1c1cc(=O)n(C)c2cn(CC#N)nc12 (single isomer, unassigned) [Compound A80a]" testedon="DGKζ (Homo sapiens (Human), UniProt Q13574)" reportedmeasurement=6.03
molecule="CC[C@H]1CN(C(C)c2ccc3cncn3c2)[C@H](CC)CN1c1cc(=O)n(C)c2cn(CC#N)nc12 (single isomer, unassigned) [Compound A83a]" testedon="DGKζ (Homo sapiens (Human), UniProt Q13574)" reportedmeasurement=5.06
molecule="CC[C@H]1CN(C(C)c2ccn3ncc(F)c3n2)[C@H](CC)CN1c1cc(=O)n(C)c2cn(CC#N)nc12 (single isomer, unassigned) [Compound A161b]" testedon="DGKζ (Homo sapiens (Human), UniProt Q13574)" reportedmeasurement=7.74

[P] CC[C@H]1CN(C(C)c2ccc3nc(COC)sc3n2)[C@H](CC)CN1c1cc(=O)n(C)c2cn(CC#N)nc12 (single isomer, unassigned) [Compound A143a]
[Q] CC[C@H]1CN(C(C)c2ncc(OC)cc2C)[C@H](CC)CN1c1cc(=O)n(C)c2cn(CC#N)nc12 (some centres unmarked) [Compound A60]
Q) Pick the one with the larger pIC50: P vs Q Mark your selection by writing its label.
A) Q
(Q: 6.19, P: 5.67)

###

# testedOn: DGKα (Homo sapiens (Human), UniProt P23743)
# Sequence (P23743 whole entry): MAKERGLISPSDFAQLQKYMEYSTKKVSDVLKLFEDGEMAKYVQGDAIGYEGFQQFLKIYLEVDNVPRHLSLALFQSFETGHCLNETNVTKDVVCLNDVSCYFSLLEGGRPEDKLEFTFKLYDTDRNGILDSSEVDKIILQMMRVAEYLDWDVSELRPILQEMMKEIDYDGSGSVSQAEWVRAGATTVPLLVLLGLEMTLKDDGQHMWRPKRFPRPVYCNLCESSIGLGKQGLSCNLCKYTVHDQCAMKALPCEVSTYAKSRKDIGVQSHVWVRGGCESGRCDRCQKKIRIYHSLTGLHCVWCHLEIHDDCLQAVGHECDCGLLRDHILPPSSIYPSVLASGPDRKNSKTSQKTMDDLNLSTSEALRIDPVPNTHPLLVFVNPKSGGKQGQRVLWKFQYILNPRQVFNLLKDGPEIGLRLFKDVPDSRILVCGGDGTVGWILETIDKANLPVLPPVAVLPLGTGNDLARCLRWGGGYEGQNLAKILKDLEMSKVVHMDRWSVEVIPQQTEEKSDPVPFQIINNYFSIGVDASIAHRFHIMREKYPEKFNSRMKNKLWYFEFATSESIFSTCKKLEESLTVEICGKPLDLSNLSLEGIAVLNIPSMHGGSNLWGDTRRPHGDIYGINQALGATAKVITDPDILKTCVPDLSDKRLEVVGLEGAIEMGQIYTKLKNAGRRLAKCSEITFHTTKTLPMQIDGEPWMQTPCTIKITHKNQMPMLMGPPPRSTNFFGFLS
# assayRemarks: Biochemical DGK IC50 assay (ADP-Glo, lipid micelle substrate), DGKα; note: full length DGKα 7.5 nM
# experimentalParameters: full length DGKα […], ATP 140 μM, DAG 80 μM
pIC50: −log10 of the molar value.
property: pIC50

molecule="CC[C@H]1CN(C(C)c2ccc3nc(OC4CC4)sc3n2)[C@H](CC)CN1c1cc(=O)n(C)c2cn(CC#N)nc12 (single isomer, unassigned) [Compound A146a]" testedon="DGKα (Homo sapiens (Human), UniProt P23743)" property=pIC50 reportedmeasurement=5.62

[P] CCC(c1ccn2nc(C)cc2n1)N1C[C@H](C)N(c2cc(=O)n(C)c3cn(CC#N)nc23)C[C@H]1CC (single isomer, unassigned) [Compound A171b]
[Q] CC[C@H]1CN(C(C)c2ccc(C(C)(F)F)cc2)[C@H](CC)CN1c1cc(=O)n(C)c2cn(CC#N)nc12 (stereo partly drawn)
Q) // returns P or Q , whichever has the lower pIC50 Mark your selection by writing its label.
A) P

[a] CC[C@H]1CN(C(C)c2ccc3nc(C)sc3n2)[C@H](CC)CN1c1cc(=O)n(C)c2cn(CC#N)nc12 (single isomer, unassigned) [Compound A133b]
[b] CC[C@H]1CN(C(C)c2ccc3nc(COC)sc3n2)[C@H](CC)CN1c1cc(=O)n(C)c2cn(CC#N)nc12 (single isomer, unassigned) [Compound A143b]
Q) // returns a or b , whichever has the lower pIC50 Mark your selection by writing its label.
A) b
(b: 6.82, a: 7.21)

###

// values below are IC50; system is DGKα (Homo sapiens (Human))
property: IC50 (nM)

# example entries with known answers
compound="CC[C@H]1CN([C@H](C)c2ccc(OC(C)C)cc2)[C@H](CC)CN1c1cc(=O)n(C)c2cn(CC#N)nc12 [Compound A33a]" property=IC50 reportedmeasurement=49
compound="CC[C@H]1CN(C(C)c2ccn3nc(C)cc3n2)[C@H](CC)CN1c1cc(=O)n(C)c2cn(CC#N)nc12 (single isomer, unassigned) [Compound A152b]" property=IC50 reportedmeasurement=45
compound="CC[C@H]1CN(C(C)c2ccn3ccnc3c2)[C@H](CC)CN1c1cc(=O)n(C)c2cn(CC#N)nc12 (single isomer, unassigned) [Compound A80a]" property=IC50 reportedmeasurement=140
compound="CC[C@H]1CN(C(C)c2ccc3nc(OCCF)sc3n2)[C@H](CC)CN1c1cc(=O)n(C)c2cn(CC#N)nc12 (single isomer, unassigned) [Compound A147a]" property=IC50 reportedmeasurement=180
compound="CC[C@H]1CN(C(C)c2ccc(OC3CC3)nc2)[C@H](CC)CN1c1cc(=O)n(C)c2cn(CC#N)nc12 (stereo partly drawn)" property=IC50 reportedmeasurement=541

[P] CC[C@@H]1CN(c2cc(=O)n(C)c3cn(CC#N)nc23)[C@@H](C)CN1C(C)c1ccn2nccc2n1 (single isomer, unassigned) [Compound A166a]
[Q] CC[C@H]1CN(C(C)c2ccc3cc(C(F)F)sc3n2)[C@H](CC)CN1c1nc(=O)n(C)c2cn(CC#N)nc12 (single isomer, unassigned) [Compound A148a]
Q) // returns P or Q , whichever has the lower IC50 Mark your selection by writing its label.
A) P
